Sourced from patent US20220177604A1

# Tested target: human immunoglobulin E (hIgE) (human) (UniProt P01854)
# Sequence (P01854 whole entry): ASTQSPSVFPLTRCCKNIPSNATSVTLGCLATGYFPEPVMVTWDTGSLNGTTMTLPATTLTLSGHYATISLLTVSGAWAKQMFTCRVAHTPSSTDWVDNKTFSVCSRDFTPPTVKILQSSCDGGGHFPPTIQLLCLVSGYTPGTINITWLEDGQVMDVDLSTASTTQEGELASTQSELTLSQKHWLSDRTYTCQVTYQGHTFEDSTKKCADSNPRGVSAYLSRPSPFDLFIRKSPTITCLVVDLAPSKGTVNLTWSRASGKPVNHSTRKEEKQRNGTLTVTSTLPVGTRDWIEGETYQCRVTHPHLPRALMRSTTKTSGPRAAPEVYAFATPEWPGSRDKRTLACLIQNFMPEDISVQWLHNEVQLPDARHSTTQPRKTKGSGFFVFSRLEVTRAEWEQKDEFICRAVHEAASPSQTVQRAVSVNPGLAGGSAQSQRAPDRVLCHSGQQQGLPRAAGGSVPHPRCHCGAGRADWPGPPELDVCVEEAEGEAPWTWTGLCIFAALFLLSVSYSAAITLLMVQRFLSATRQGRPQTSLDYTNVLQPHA
# Experiment: SPR competition, hIgE over hFcεRIα chip, pH 7.4
Attribute measured: IC50
Returns: string containing the numeric result and its unit.

Enquiry: GET /values?readout=IC50&item= 18E2His2-hIgG1-WT (antibody, V domains shown) VH: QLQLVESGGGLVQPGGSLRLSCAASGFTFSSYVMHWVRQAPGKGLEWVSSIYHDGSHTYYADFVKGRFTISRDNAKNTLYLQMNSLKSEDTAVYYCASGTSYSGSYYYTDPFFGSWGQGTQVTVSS VL: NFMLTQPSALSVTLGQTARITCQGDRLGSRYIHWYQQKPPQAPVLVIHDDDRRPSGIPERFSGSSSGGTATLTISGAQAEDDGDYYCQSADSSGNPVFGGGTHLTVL
Return: 6 µg/mL

Enquiry: GET /values?readout=IC50&item= 18B9His-hIgG1-ABDEG (antibody, V domains shown) VH: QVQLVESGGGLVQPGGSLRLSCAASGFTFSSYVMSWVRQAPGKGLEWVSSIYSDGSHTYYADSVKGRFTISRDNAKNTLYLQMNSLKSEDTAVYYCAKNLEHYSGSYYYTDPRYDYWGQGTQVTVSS VL: SSALTQPSALSVTLGQTAKITCQGGSLGSSYVHWYQQKPGQAPVLVIHDGDSRPSGIPERFSGSSSGGTATLTISGAQAEDEDDYYCQSADSSGNAVFGGGTHLTVL
Return: 2.9 µg/mL

Continuing:
Enquiry: GET /values?readout=IC50&item= 18B9His-hIgG1-WT (antibody, V domains shown) VH: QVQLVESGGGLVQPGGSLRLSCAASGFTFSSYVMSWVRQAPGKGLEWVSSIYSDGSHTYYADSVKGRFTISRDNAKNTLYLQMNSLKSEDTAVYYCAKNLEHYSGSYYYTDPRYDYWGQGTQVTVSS VL: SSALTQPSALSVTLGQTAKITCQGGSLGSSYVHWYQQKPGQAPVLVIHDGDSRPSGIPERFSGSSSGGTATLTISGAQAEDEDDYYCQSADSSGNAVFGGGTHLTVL
Return: 2.7 µg/mL
